tested on: Toxoplasma gondii; experiment: AntiToxoplasma gondii activity data 2-day killing assay: IC50 (uM), Experiment F; assay type: functional, organism-based; details: Toxoplasma gondii, 48 h; read-out: IC50
pIC50: −log10 of the molar value.
Label FALSE if pIC50 falls below 6; label TRUE in every other case.

{"COMPOUND STRUCTURE": "CC(C)(C)n1nc(Cc2ccc(F)c(Cl)c2)c2c(N)ncnc21", "CLASSIFICATION": "FALSE"}

Exam item: Confirm if pIC50 reported for the compound Nc1ncnc2c1c(-c1cnc3ccccc3c1)nn2CC1CCNCC1 is 6 or above.
Marked response: FALSE

Exam item: Confirm if pIC50 reported for the compound CC(C)n1nc(-c2cc3c(Cl)cccc3[nH]2)c2c(N)ncnc21 is 6 or above.
Marked response: TRUE

Exam item: Confirm if pIC50 reported for the compound Cc1cc(NC(=O)c2ccc(Oc3ccc(Cl)cc3O)o2)no1 is 6 or above.
Marked response: FALSE

Exam item: Confirm if pIC50 reported for the compound Nc1ncnc2[nH]nc(Cc3cccc4ccccc34)c12 is 6 or above.
Marked response: FALSE

Exam item: Confirm if pIC50 reported for the compound Nc1nc(N)c2c3c(sc2n1)CN(Cc1ccccc1)CC3 is 6 or above.
Marked response: FALSE
